// data source = patent US20240409645A1

Field: P.E. binding ELISA OD. Provide a value for each of the binders that follow.
- TGT: T1, human IL-2Rβ (human, UniProt P14784 27-240, limits assumed)
- T1 construct: recombinant protein, coated or immobilised; also called hu IL-2R; IL-2R beta
- T1 sequence: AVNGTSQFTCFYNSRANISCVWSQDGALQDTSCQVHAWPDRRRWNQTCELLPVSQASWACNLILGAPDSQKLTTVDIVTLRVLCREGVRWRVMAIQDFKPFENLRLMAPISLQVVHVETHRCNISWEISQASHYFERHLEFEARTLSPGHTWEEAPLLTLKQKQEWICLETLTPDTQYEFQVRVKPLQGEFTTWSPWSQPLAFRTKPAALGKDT
- ASSAY NAME: P.E. ELISA, coated protein
# output: bare number, implied unit OD450 nm

Bench note: what P.E. binding ELISA OD did FJ1427_P035MP02B06 (VHH, soluble VHH in periplasmic extract; also called clone nr) VHH: QVQLVESGGGLVQPGESLGLSCAASGFTFSNYAMSWVRQAPGKGLEWVSSITGAGRGTDYADSVKGRFTISRDNAKNTLYLQMNSLKPEDTAVYYCAKYSSGTYYPPTPVRGTDYRGQGTQVTVSS show?
0.125

Quick check: P.E. binding ELISA OD of FJ1427_P035MP03F10 (VHH, soluble VHH in periplasmic extract; also called 20-MP03F10; clone nr; 270) VHH: EVQLVESGGGLVQAGGSLRLSCAASGRDFSSYAMGWFRQAPGKEREFVVAITWTKRSTDFPDSVKGRFTISRDNAKNTVYLDMNSLKPEDTAVYYCASARGLPVTPLGDIIYWGEGTLVTVSS ?
0.497

Fill in the blank: the reported P.E. binding ELISA OD of FJ1427_P035MP06F05 (VHH, soluble VHH in periplasmic extract; also called 25-MP06F05; clone nr) VHH: QVQLVESGGGLVQTGDSLRLSCAASGRSLDTTYIAWFRQAPGKERDFLAYISPRFSHTWYADSVKGRFTISRNIAKRTVDLEMNSLEPEDTAVYYCAAREHSGSTAWEHYDHWGQGTQVTVSS is ____.
0.159

Entry FJ1427_P035MP02F06 (VHH, soluble VHH in periplasmic extract; also called clone nr) VHH: EVQLVESGGGLVQTGGSLRLSCAASGSRFISDFMGWYRQVPGKQRELVADMADGGSARYGDSVKGRFTILRESGNATAYLQMSSLKPEDTGVYYCKAGLWIAGRHFDYWGQGTQVTVSS has what P.E. binding ELISA OD?
0.214

Can you look up the measured P.E. binding ELISA OD of FJ1427 P035MP02G02 (VHH, soluble VHH in periplasmic extract; also called clone nr) VHH: QVQLVESGGGLVQPGGSLRLSCAASGSHFISDVMGWYRQVPGKQRELVADMADGGSVKYGDSVKGRFTILRDSVKNTVTLQMSSLNPEDTGVYYCKAGLWITGRHFDYWGQGIQVTVTS for me?
0.177

What value of measured P.E. binding ELISA OD is listed for FJ1427_P035MP02D07 (VHH, soluble VHH in periplasmic extract; also called clone nr) VHH: EVQLVESGGGLVQAGGSLRLSCAASGRSLSTTEMGWFRQAPGKEREFVAAITWSGRGTMYAESVEGRFAVSRENAKNTVYLQMNSLKPEDTAIYYCAAARRGRAAVRSEGGYDFWGQGTQVTVSS ?
0.747

Dear colleague, I am looking for the recorded P.E. binding ELISA OD of the following binder: FJ1427_P035MP02C04 (VHH, soluble VHH in periplasmic extract; also called clone nr) VHH: QVQLVESGGGLVQPGGSLELSCAASGFTFSNYAMSWVRQAPGKGLEWVSSITGFGRGTDYADSVKGRFTISRDNDKNTLYLQMNSLKPEDTAVYYCARYSSSTYYPPTPARGRDYRGQGTQVTVSS
0.424

Requested read-out: P.E. binding ELISA OD. Entry: FJ1427_P035MP02D03 (VHH, soluble VHH in periplasmic extract; also called clone nr) VHH: QVQLVESGGGLVQAGGPLRLSCAASGGTFSSYAMGWFRQAPGKEREFVAATTRGGGRTMYAVSTEGRFTCSRDNAKNTVYLLMNSLKPEDTAVYYCAAMTSYYSGTYYPDSSDFDIWGQGTQVTVSS
0.286
